Provide the recorded TGI for the entries that follow.
test system: OVCAR-4 ovarian; assay: NCI tumour cell line growth inhibition, 48 h

CC1(C)CN=C(Nc2ccc(F)c(Cl)c2)S1 : > 100 µM
COc1cc(C2SCC(=O)N2NC(=O)c2ccc(NC(C)=O)cc2OC)ccc1O (stereo not given) : > 100 µM
CCOC1=NC(C(F)(F)F)(C(F)(F)F)N=C(N2CCCCC2)O1 : > 100 µM
COc1cc(C(=O)N(C(=S)OC23CC4CC(CC(C4)C2)C3)c2ccccc2)cc(OC)c1OC : > 100 µM
Cc1ccc(N2C3=C(CC4=C2CC(C)(C)CC4=O)C(=O)CC(C)(C)C3)cc1 : > 100 µM
O=C(CC1SC(=Nc2ccccc2Cl)NC1=O)Nc1ccc(Cl)cc1 (stereo not given) : > 100 µM
Cn1cc2ccccc2c1-c1nc(F)nc(Nc2ccc(N)cc2)n1 : 64.3 µM
COc1ccc2c(c1)c(=O)c1c(NCCCN(C)C)ccc3ncn2c31 : 13 µM

# per-item lookup of TGI; items listed below
1. NC(N)=NC(N)=Nc1ccc(S(N)(=O)=O)cc1
2. CCOC(=O)/C=C/c1c[nH]c(=O)[nH]c1=O
3. C[C@H]1[C@H](C)CC[C@]2(C(=O)OC3OC(CO)C(O)C(O)C3O)CC[C@]3(C)C(=CC[C@@H]4[C@@]5(C)C[C@@H](O)[C@@H]6OC(=O)c7cc(O)c(O)c(O)c7-c7c(cc(O)c(O)c7O)C(=O)OC[C@]6(CO)[C@@H]5CC[C@]43C)[C@H]12 (stereo not given in full)
4. CN(C(=O)c1ccc(Cl)cc1)C(=S)N1CCN(c2ccccc2)CC1

> 100 µM
> 75 µM
40.1 µM
> 100 µM

// for each compound in input: emit TGI
1. N[C@@H](Cc1ccc2oc3cc(=O)c4ccccc4c-3nc2c1)C(=O)O
2. COc1ccc2c(c1)c(-c1ccc(-c3cn(C)c4ccc(OC)cc34)o1)cn2C

> 100 µM
4.08 µM

###

Assign TGI to each entry below.
system: EKVX NSCLC; assay: NCI tumour cell line growth inhibition, 48 h

Use these answered entries as a reference point.
CN(/N=C/c1ccccc1C(=O)O)C1=NCCCCN1 : > 100 µM
CCCCCC(=C/c1ccccc1)/C=N/N=C(N)N : 19.1 µM

Here is another compound to look at.
Returns the measured TGI for the input compound. Input: O=C1c2ccccc2-c2c1c1ccc([N+](=O)[O-])cc1c(=O)n2CCCn1ccnc1 > 21.8 µM

###

system: MOLT-4 leukemia; assay: NCI tumour cell line growth inhibition, 48 h
Answer not fulfilled if TGI is under 20 µM, and fulfilled if it is 20 µM or more.

Below are worked cases with known answers.
COC(=O)c1ccc(/C=C/S(=O)(=O)c2ccccc2)cc1 : fulfilled
CCN(CC)CCC(=O)N1C/C(=C/c2ccccc2)C(=O)/C(=C\c2ccccc2)C1 : not fulfilled
COc1cccc(NC(=O)c2ccc(NC3=C(Cl)C(=O)N(Cc4ccccc4)C3=O)cc2)c1 : not fulfilled
COc1c(N2CCN(CN3C(=O)C(=O)c4ccccc43)C(C)C2)c(F)cc2c(=O)c(C(=O)O)cn(C3CC3)c12 (stereo unspecified) : fulfilled

Is the recorded value of TGI equal to or greater than 20 µM for this compound? CCCC(=O)Nc1c(I)cc(I)c(CC(CC)C(=O)O)c1I (stereo unspecified) fulfilled

Is it the case that O=C1CSC(c2cccc(Oc3ccccc3)c2)N1c1cccc(Cl)c1Cl (stereo unspecified) has TGI reaching or exceeding 20 µM? fulfilled

Hello, I need to know if COc1ccccc1N1CCN(CCCOc2ccc(C(=O)/C=C3/C(=O)Nc4ccccc43)cc2)CC1 has measured TGI not below 20 µM. Thanks! not fulfilled
